- target.or.system: Calpain-2 catalytic subunit (Homo sapiens, UniProt P17655)
- Sequence (P17655 whole entry): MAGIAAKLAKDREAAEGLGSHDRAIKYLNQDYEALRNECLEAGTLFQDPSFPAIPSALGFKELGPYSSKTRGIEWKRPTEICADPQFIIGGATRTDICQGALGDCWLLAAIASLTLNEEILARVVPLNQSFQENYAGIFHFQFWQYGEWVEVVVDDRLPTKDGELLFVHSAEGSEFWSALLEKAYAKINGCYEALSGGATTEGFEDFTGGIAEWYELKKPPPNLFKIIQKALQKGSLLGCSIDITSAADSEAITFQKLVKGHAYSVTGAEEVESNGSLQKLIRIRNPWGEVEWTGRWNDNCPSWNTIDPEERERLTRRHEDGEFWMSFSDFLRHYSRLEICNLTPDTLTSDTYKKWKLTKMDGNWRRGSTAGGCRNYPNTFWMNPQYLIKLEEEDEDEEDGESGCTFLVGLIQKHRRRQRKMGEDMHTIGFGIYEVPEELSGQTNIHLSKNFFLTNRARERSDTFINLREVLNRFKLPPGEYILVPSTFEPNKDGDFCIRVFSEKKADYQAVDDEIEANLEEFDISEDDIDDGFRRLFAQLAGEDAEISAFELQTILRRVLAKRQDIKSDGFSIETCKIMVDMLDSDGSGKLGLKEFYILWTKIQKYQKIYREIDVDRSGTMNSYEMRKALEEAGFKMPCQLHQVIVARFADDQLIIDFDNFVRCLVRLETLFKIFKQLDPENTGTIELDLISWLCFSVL
- assay.procedure: Inhibition of human CAPN2
pIC50: −log10 of the molar value. Residues, ends and D or L forms follow the SMILES beside them. *: point of attachment. Cbz = O=C(OCc1ccccc1)*
observable: pIC50

compound	target.or.system	measured.result
CC(C)[C@H](NC(=O)OCc1ccccc1)C(=O)N[C@H](C=O)Cc1ccccc1 (Cbz-Val-Phe-aldehyde)	Calpain-2 catalytic subunit (Homo sapiens, UniProt P17655)	6.46

###

- target.or.system: Calpain-2 catalytic subunit (Sus scrofa, UniProt P43367)
- Sequence (P43367 whole entry): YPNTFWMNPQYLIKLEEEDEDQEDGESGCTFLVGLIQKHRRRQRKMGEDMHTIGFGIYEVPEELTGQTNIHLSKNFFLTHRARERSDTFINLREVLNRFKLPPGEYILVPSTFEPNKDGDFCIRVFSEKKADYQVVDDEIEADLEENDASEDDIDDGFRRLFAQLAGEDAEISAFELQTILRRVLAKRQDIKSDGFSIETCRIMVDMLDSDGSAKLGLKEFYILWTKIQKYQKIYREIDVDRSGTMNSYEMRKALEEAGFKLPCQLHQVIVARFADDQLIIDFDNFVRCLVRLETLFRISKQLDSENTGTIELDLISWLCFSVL
- assay.procedure: Inhibition of pig CAPN2
observable: IC50 (nM)

smiles.representation	target.or.system	measured.result
CC(C)C[C@@H](C=O)NC(=O)[C@@H](NS(=O)(=O)c1ccc(F)cc1)C(C)C	Calpain-2 catalytic subunit (Sus scrofa, UniProt P43367)	78

###

- target.or.system: Calpain-1 catalytic subunit (Sus scrofa, UniProt P35750)
- Sequence (P35750 whole entry): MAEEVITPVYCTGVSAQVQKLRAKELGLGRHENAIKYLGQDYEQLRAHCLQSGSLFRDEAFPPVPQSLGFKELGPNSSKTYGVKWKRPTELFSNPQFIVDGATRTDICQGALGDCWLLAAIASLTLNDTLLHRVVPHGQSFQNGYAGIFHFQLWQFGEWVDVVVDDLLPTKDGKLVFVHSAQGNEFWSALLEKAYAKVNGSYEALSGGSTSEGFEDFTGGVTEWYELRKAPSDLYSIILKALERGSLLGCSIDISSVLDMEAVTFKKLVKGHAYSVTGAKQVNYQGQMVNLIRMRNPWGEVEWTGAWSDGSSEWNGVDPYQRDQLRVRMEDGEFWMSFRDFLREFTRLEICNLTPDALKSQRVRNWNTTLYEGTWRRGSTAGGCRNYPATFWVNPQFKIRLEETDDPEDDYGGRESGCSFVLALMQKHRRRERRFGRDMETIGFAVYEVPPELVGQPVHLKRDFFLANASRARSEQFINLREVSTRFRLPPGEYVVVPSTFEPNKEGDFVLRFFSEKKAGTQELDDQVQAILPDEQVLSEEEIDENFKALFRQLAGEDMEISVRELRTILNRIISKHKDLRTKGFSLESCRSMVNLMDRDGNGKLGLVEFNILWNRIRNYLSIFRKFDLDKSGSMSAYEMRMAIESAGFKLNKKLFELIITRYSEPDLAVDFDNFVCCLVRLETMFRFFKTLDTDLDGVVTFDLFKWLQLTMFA
pIC50: −log10 of the molar value.
observable: pIC50

smiles.representation	observable	measured.result
CC(C)C[C@@H](C=O)NC(=O)[C@@H](NS(=O)(=O)c1ccc(F)cc1)C(C)C	pIC50	8.12
